The measurements presented in this section are drawn from ChEMBL document CHEMBL4152262.

Target: UniProtKB P81908
Sequence (P81908 whole entry): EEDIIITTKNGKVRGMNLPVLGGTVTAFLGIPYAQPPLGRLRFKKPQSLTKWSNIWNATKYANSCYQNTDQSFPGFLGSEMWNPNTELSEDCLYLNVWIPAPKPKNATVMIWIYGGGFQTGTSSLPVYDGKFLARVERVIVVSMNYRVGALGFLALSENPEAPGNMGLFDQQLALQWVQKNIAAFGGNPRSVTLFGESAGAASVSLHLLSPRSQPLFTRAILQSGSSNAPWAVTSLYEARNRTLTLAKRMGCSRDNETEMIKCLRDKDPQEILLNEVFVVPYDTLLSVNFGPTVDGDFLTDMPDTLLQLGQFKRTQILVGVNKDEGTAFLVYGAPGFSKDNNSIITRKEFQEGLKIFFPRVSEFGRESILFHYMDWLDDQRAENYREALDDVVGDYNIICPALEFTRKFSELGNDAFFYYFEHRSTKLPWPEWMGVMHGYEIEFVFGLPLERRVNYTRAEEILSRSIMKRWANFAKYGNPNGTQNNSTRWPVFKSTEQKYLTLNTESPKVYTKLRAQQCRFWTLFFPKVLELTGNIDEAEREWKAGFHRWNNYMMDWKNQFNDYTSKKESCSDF
Experiment: Inhibition of equine serum BuChE using butyrylthiocholine iodide as substrate pretreated for 5 mins followed by substrate addition by Ellman's method
Reported values of IC50 for individual entries

| Molecule | IC50 |
| --- | --- |
| COc1ccc(-c2cc3ccc(OCCCCn4cc(CNC(=O)CCCCC5CCSS5)nn4)cc3oc2=O)cc1OC (centres undefined) | > 100 µM |
| O=C(CCCCC1CCSS1)NCc1cn(CCCOc2ccc3cc(C(=O)O)c(=O)oc3c2)nn1 (centres undefined) | > 100 µM |
| O=C(CCCCC1CCSS1)NCc1cn(CCCCCOc2ccc3ccc(=O)oc3c2)nn1 (centres undefined) | > 100 µM |
| O=C(CCCCC1CCSS1)NCc1cn(CCCCOc2ccc3cc(-c4ccc(Cl)cc4)c(=O)oc3c2)nn1 (centres undefined) | 52 µM |

Give reported IC50 value for CC(=O)c1cc2ccc(OCCCCCn3cc(CNC(=O)CCCCC4CCSS4)nn3)cc2oc1=O (centres undefined)
> 100 µM

Give reported IC50 value for CCOC(=O)c1cc2ccc(OCCCCCn3cc(CNC(=O)CCCCC4CCSS4)nn3)cc2oc1=O (centres undefined)
> 100 µM

Give reported IC50 value for O=C(CCCCC1CCSS1)NCc1cn(CCCCOc2ccc3cc(-c4ccc(Cl)c(Cl)c4)c(=O)oc3c2)nn1 (centres undefined)
10.3 µM

Give reported IC50 value for COc1ccc(-c2cc3ccc(OCCCCCn4cc(CNC(=O)CCCCC5CCSS5)nn4)cc3oc2=O)cc1OC (centres undefined)
> 100 µM

Give reported IC50 value for O=C(CCCCC1CCSS1)NCc1cn(CCCCOc2ccc3cc(-c4ccccc4)c(=O)oc3c2)nn1 (centres undefined)
> 100 µM
